System: HCT-15 colon
measurement.description: NCI tumour cell line growth inhibition, 48 h
quantity.measured: GI50

### Prompt For the compound O=C(/C=C/c1cccnc1)/C=C/c1cccnc1 , what GI50 is on record?
### Response 0.523 µM

### Prompt For the compound C[CH2][Sn]([CH2]C)([O]C(=O)c1cc(OC)c(OC)c(OC)c1)[O][Sn]([CH2]C)([CH2]C)[O]C(=O)c1cc(OC)c(OC)c(OC)c1 , what GI50 is on record?
### Response 43 µM

### Prompt For the compound COc1cc2c(c(Br)c1N)-c1cc(Br)c(N)cc1C2=O , what GI50 is on record?
### Response > 100 µM

====

Tested on: OVCAR-4 ovarian
measurement.description: NCI tumour cell line growth inhibition, 48 h
quantity.measured: TGI (µM)
API: value field is a number in µM; no unit string.

### Prompt For the compound CC1OC(OC2C(OC3CCC4(C)C(CCC5(C)C4CC=C4C6CC(C)(C)CCC6(CO)C(O)CC45C)C3(C)C)OC(C(=O)O)C(OC3OC(COC4OC(CO)C(O)C(O)C4O)C(O)C(O)C3O)C2O)C(O)C(O)C1O (stereo not given) , what TGI is on record?
### Response 12.8

### Prompt For the compound COc1ccc(C(NCCNC(c2ccc(OC)c(OC)c2)c2cc3c(cc2O)OCO3)c2cc3c(cc2O)OCO3)cc1OC (stereo not given) , what TGI is on record?
### Response 11.5

====

Tested on: EKVX NSCLC
measurement.description: NCI tumour cell line growth inhibition, 48 h
quantity.measured: TGI

### Prompt For the compound COc1cccc(/C=N/[N-]C(N)=O)c1[O-].[OH3+].[Zn+2] , what TGI is on record?
### Response > 100 µM

### Prompt For the compound COC(=O)[C@@H](COC(=O)/C=C/c1ccc(OC(C)=O)c(OC(C)=O)c1)NC(=O)/C=C/c1ccc(OC(C)=O)c(OC(C)=O)c1 , what TGI is on record?
### Response 71.5 µM

### Prompt For the compound CNS(=O)(=O)NN(C)S(=O)(=O)c1ccc(C)cc1 , what TGI is on record?
### Response > 100 µM

### Prompt For the compound COc1cc2c(cc1OCCCN1CCN(CCCOc3cc4c(cc3OC)C(=O)C3CCC[C@H]3C=N4)CC1)N=C[C@@H]1CCCC1C2=O (some centres undefined) , what TGI is on record?
### Response > 100 µM

### Prompt For the compound CCOc1ccc(NC(=O)/C(=C/c2ccccc2)C(C)=O)cc1 , what TGI is on record?
### Response 35.4 µM

### Prompt For the compound COc1ccc(Br)c(CCCCC(=O)O)c1 , what TGI is on record?
### Response > 100 µM

### Prompt For the compound O=C(CC(C(=O)c1ccsc1)c1cccs1)c1ccsc1 (centres undefined) , what TGI is on record?
### Response > 100 µM

### Prompt For the compound CC1(C)CC[C@]2(C(=O)O)CCC3(C)C(=CCC4[C@@]5(C)CC[C@H](OC6OCC(O)C(O)C6OC6OC(CO)C(O)C(O)C6O)C(C)(C)C5CC[C@]43C)C2C1 (some centres undefined) , what TGI is on record?
### Response 3.85 µM

### Prompt For the compound c1ccc2c(c1)SCCCSCCCS2 , what TGI is on record?
### Response > 100 µM

### Prompt For the compound COc1ccc(OC)c(CC(=O)c2ccc(O)c(C(=O)NCCc3ccc(F)cc3)c2)c1 , what TGI is on record?
### Response 36.2 µM

### Prompt For the compound CCOP(=O)(OCC)OC1CC(n2cnc3c(N(CC)CC)ncnc32)OC1CO[Si](C)(C)C(C)(C)C (centres undefined) , what TGI is on record?
### Response 20.5 µM

### Prompt For the compound CC(=O)OCC1OC(n2cnc3c(I)nc(I)nc32)C(OC(C)=O)C1OC(C)=O (centres undefined) , what TGI is on record?
### Response 33.3 µM

### Prompt For the compound O=c1[nH]nc(Cc2ccc(Cl)cc2)n1Nc1ccccc1 , what TGI is on record?
### Response > 100 µM

### Prompt For the compound Nc1cc2c3c(cccc3c1)C(=O)N(CCN1CCN(CCN3C(=O)c4cccc5cc(N)cc(c45)C3=O)CC1)C2=O , what TGI is on record?
### Response > 100 µM

### Prompt For the compound COc1ccc(C(c2ccccc2)N2C(=O)CCC2C(=O)O)cc1OC (centres undefined) , what TGI is on record?
### Response > 100 µM

### Prompt For the compound COc1cc([C@@H]2c3cc4c(cc3[C@@H](N=Cc3ccc(C(=O)O[C@H]5C[C@H]6OC[C@@]6(OC(C)=O)[C@H]6[C@H](OC(=O)c7ccccc7)[C@]7(O)C[C@H](OC(=O)[C@H](OC(=O)c8ccc(C=N[C@@H]9c%10cc%11c(cc%10[C@@H](c%10cc(OC)c(O)c(OC)c%10)[C@H]%10C(=O)OC[C@@H]%109)OCO%11)cc8)[C@@H](NC(=O)c8ccccc8)c8ccccc8)C(C)=C([C@@H](OC(C)=O)C(=O)[C@]56C)C7(C)C)cc3)C3COC(=O)C32)OCO4)cc(C)c1O (some centres undefined) , what TGI is on record?
### Response > 35.2 µM

### Prompt For the compound c1ccc(NC2(c3nnnn3C3CCCCC3)CCNCC2)cc1 , what TGI is on record?
### Response 79.7 µM

### Prompt For the compound CCN1CCC(O)(c2ccccc2)C(C(=O)c2ccccc2)C1 (centres undefined) , what TGI is on record?
### Response > 76.4 µM

### Prompt For the compound COc1cccc2c(=O)c3c(O)c4cc(N(C)C)ccc4c(OC(C)=O)c3oc12 , what TGI is on record?
### Response 25.8 µM

### Prompt For the compound COc1ccc(C(NCCNC(c2ccc(OC)c(OC)c2)c2cc3c(cc2O)OCO3)c2cc3c(cc2O)OCO3)cc1OC (centres undefined) , what TGI is on record?
### Response 18.7 µM

### Prompt For the compound Brc1ccc(C2(N3CCCCC3)CCCCC2)s1 , what TGI is on record?
### Response > 100 µM

### Prompt For the compound O=C(CN1c2ccccc2Sc2ccccc21)n1cnc2ccccc21 , what TGI is on record?
### Response > 100 µM

### Prompt For the compound O=C1/C(=C/c2ccccc2Cl)COc2ccccc21 , what TGI is on record?
### Response 29.7 µM

### Prompt For the compound c1ccc2c(-c3ccnc(-c4c[nH]c5ccccc45)n3)c[nH]c2c1 , what TGI is on record?
### Response > 100 µM

### Prompt For the compound COC(=O)C1(c2ccc(OC)cc2)NC(c2ccccc2)C2C(=O)N(c3ccc(OC)cc3)C(=O)C21 (centres undefined) , what TGI is on record?
### Response > 100 µM

### Prompt For the compound COC1(CCO)CC=CCC1(CCO)OC (centres undefined) , what TGI is on record?
### Response > 100 µM

### Prompt For the compound COc1ccc(C=O)c(N(C)C(=O)C(C)(C)C)c1 , what TGI is on record?
### Response > 100 µM

### Prompt For the compound c1cc(-c2ccc(Oc3ccc(-c4ccncc4)cc3)cc2)ccn1 , what TGI is on record?
### Response > 67.1 µM

### Prompt For the compound N/C(=N\N=C=C1C(=O)Nc2ccc(F)cc21)NO , what TGI is on record?
### Response > 100 µM

### Prompt For the compound c1ncc(C23C4C5C6C4C2C6C53)[nH]1 (centres undefined) , what TGI is on record?
### Response > 100 µM

### Prompt For the compound CC1(c2nc3ccccc3[nH]2)CCC(CO)C(C)(C)O1 (centres undefined) , what TGI is on record?
### Response > 100 µM

### Prompt For the compound CC1=NN(c2ccccc2Cl)C2(C1)SCC(=O)N2c1nc2ccccc2s1 (centres undefined) , what TGI is on record?
### Response > 100 µM

### Prompt For the compound C/C(=N\NC(=S)Nc1ccccc1)c1ccccn1 , what TGI is on record?
### Response 7.38 µM

### Prompt For the compound O=[N+]([O-])c1ccc(N=Nc2c(O)[nH]c3ccc(Br)cc23)c([N+](=O)[O-])c1 , what TGI is on record?
### Response 33.7 µM
